SYSTEM_TESTED: T1, 4H464-AA
T1 chain: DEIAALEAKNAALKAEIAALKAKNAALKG
TEST: two-hybrid library CCmax;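 note: natural log of median RNA to DNA barcode read ratio; higher means stronger binding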
SETTINGS: mean of both orientations
MEASURED_QUANTITY: interaction score

P: DEIAALEAKIAALKAKNAALKAENAALKG [4H380-AA]
Q: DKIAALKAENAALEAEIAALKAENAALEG [4H2699-AA]
Prompt line: Which has the smaller recorded interaction score, P or Q ? When you have decided, please share the label of that item.
Response line: P
(P: -1.6, Q: 2.17)
